System: EKVX
Assay: NCI tumour cell line growth inhibition, 48 h
Calls of active or inactive are those of the source. Cut-off read from the data, not from the text of the source: active = GI50 up to about 1.1 µM and inactive = higher.
Lab note: assign the record to one of active, inactive

Solved cases below.
>>> label_value("Cc1ccccc1OC(C)C(=O)NN1C(=O)CC(=O)NC1=S (stereo not given)")
"inactive"
>>> label_value("COc1cc2c(c(OC)c1OC)-c1ccc(SC)c(=O)cc1[C@@H](NCc1cccc(C#N)c1)CC2")
"active"
>>> label_value("COc1ccc(CNc2cc(OC)c(OC)c(OC)c2)cc1")
"inactive"
>>> label_value("C/C=C1\\CCC2c3[nH]c4ccccc4c3CCN2C1 (stereo not given)")
"inactive"

Recorded test call requested for CCOC(=O)C(=O)CC(=O)C1=C(c2ccccc2OC)CC(c2cccs2)=CC1=O
inactive

Recorded test call requested for COc1ccccc1/C=C1\Sc2scc(-c3cccc([N+](=O)[O-])c3)[n+]2C1=O
inactive

Recorded test call requested for CC(=O)O[C@H]1CC[C@@]2(C)C(=CC[C@@H]3[C@@H]2CC[C@]2(C)NC(=O)/C(=C\c4ccccc4)C[C@@H]32)C1
inactive

Recorded test call requested for O=C(CO)CC(=O)C(=O)Nc1ccccc1
inactive

Recorded test call requested for COc1ccc(/C=C\c2cc(OC)c(OC)c(OC)c2)cc1OC(=O)NCCN(C)C
active

Recorded test call requested for C1=CC2SSSC2C1 (stereo not given)
inactive

###

Tested on: UACC-62
Assay: NCI tumour cell line growth inhibition, 48 h
Calls of active or inactive are those of the source. No stated cut-off is given here; in the data, active = GI50 up to about 1.1 µM and inactive = higher.
Metric: GI50

I'd like to know its GI50. The compound in question is O=C1C2Cc3ccccc3CN2C(=O)N1CCN1CCCC1 (configuration not stated)
> 100 µM (inactive)

I'd like to know its GI50. The compound in question is COc1cc2c3c(c1OC)-c1ccccc1C(C(OC(C)=O)c1ccccc1)C3N(C)CC2 (configuration not stated)
34 µM (inactive)

I'd like to know its GI50. The compound in question is O=C(Nc1cccc(-c2cn3ccccc3n2)c1)c1ccncc1
20.9 µM (inactive)

I'd like to know its GI50. The compound in question is NC(=O)c1c2c(n3ccccc13)C(=O)c1ccccc1C2=O
68.2 µM (inactive)

I'd like to know its GI50. The compound in question is COc1cc2c(cc1O)CC13CCC(=O)N1CCc1cc(OC)c(O)c-2c13 (configuration not stated)
> 68.1 µM (inactive)

I'd like to know its GI50. The compound in question is CC1=C(SC#N)S(=O)(=O)N(c2ccccc2)C(C)=C1SC#N
30.1 µM (inactive)

I'd like to know its GI50. The compound in question is CC1=NNC(=O)C1C1CC(c2c[nH]c3ccccc23)=NN=C1Cl (configuration not stated)
85.7 µM (inactive)

###

Test system: UO-31
Assay: NCI tumour cell line growth inhibition, 48 h
Active and inactive are the calls of the source. Rule as the data show it: active = GI50 up to about 1.1 µM and inactive = higher.
Metric: GI50

>>> recorded_measurement("CC(=O)OC1CC2C(C)(C)C(=O)C=CC2(C)C2CCC3(C)C(c4ccoc4)OC(=O)C4OC43C12C (stereo not given)")
"4.23 µM (inactive)"
>>> recorded_measurement("COc1ccc(CCN(C)C2CCC(C#N)(c3ccc(OC)c(OC)c3)CC2)cc1OC (stereo not given)")
"> 100 µM (inactive)"
>>> recorded_measurement("CC[C@]12C=CCN3CC[C@@]4(c5cc(Br)c(OC)cc5N(C)[C@H]4[C@@](O)(C(=O)N[C@@H](Cc4ccc(O)cc4)C(=O)OC)[C@@H]1O)[C@@H]32")
"27.2 µM (inactive)"
>>> recorded_measurement("NCCOCCOCC(=O)O")
"> 100 µM (inactive)"

Consider the additional compound presented here.
I'd like to know its GI50. The compound in question is C[C@]12CCC(=O)C=C1CC[C@@H]1[C@@H]2CC[C@]2(C)C(=O)/C(=C/c3ccncc3)C[C@@H]12
12.6 µM (inactive)

###

Tested on: MDA-N
Assay: NCI tumour cell line growth inhibition, 48 h
Calls of active or inactive are those of the source. No stated cut-off is given here; in the data, active = GI50 up to about 1.1 µM and inactive = higher.
Lab note: assign the record to one of 1 (yes) = active, 0 (no) = inactive

Solved cases below.
>>> label_value("NNC(=O)C1(NC(=O)c2ccccc2)C(c2ccccc2)C(c2ccccc2)=NN1c1ccccc1 (centres undefined)")
"0 (no)"
>>> label_value("Cc1n(-c2ccccc2)c2c([n+]1Cc1ccc([N+](=O)[O-])cc1)C(=O)c1ccccc1C2=O")
"0 (no)"
>>> label_value("COc1ccc(CCn2ccc(=O)c(O)c2C)cc1OC")
"0 (no)"
>>> label_value("O=c1ccn([C@@H]2C[C@H]2CO)c(=O)[nH]1")
"0 (no)"
>>> label_value("COc1cc(NCc2ccc3nc(N)nc(N)c3c2C)cc(OC)c1OC")
"1 (yes)"

Recorded test call requested for Cc1cc2c(nn1)-c1ccccc1C2=O
0 (no)

Recorded test call requested for c1ccc(C2C3=C(CCCC3)Nc3nnnn32)cc1 (centres undefined)
0 (no)

###

System: COLO 205
Test: NCI tumour cell line growth inhibition, 48 h
Calls of active or inactive are those of the source. Rule as the data show it: active = GI50 up to about 1.1 µM and inactive = higher.
Metric: GI50

Use these answered entries as a reference point.
>>> recorded_measurement("CCCCCCCCCCCCC(CC)CCCCC(=O)O (stereo not drawn)")
"> 58.3 µM (inactive)"
>>> recorded_measurement("C(=N\\N=C1NCCCCN1)/c1ccc2ccccc2c1")
"15.9 µM (inactive)"
>>> recorded_measurement("CC(=O)NC(CCCNC(=O)N(CCCl)N=O)C(=O)NCc1ccccc1 (stereo not drawn)")
"> 100 µM (inactive)"
>>> recorded_measurement("CC(C)CC(=O)CC(O)C(Cl)(Cl)Cl (stereo not drawn)")
"> 100 µM (inactive)"
>>> recorded_measurement("CC1(C)[C@H](O)CC[C@]2(C)C3=CC[C@@]4(C)[C@@H]5C[C@](C)(CO)CC[C@]5(C)CC[C@]4(C)C3=CC[C@@H]12")
"3.23 µM (inactive)"
>>> recorded_measurement("CCCCCCCCCCCC(=O)OCC1OC(OC)C(NC(=O)N(CCCl)N=O)C(O)C1O (stereo not drawn)")
"21.9 µM (inactive)"

I'd like to know its GI50. The compound in question is C=CCCC(O)c1cc(C)c(O)c(C)c1 (stereo not drawn)
> 100 µM (inactive)

I'd like to know its GI50. The compound in question is O=C1O[C@H]2[C@H](OC(=O)c3cc(O)c(O)c(O)c3)[C@@H](OC(=O)c3cc(O)c(O)c4c3[C@@H]3C1=CC(=O)C(O)(O)C3(O)O4)[C@H](OC(=O)c1cc(O)c(O)c(O)c1)O[C@@H]2COC(=O)c1cc(O)c(O)c(O)c1 (stereo partly drawn)
39.5 µM (inactive)

###

Reported GI50 values for the following molecules.
Test system: CCRF-CEM
Assay: NCI tumour cell line growth inhibition, 48 h
Active and inactive are the calls of the source. No stated cut-off is given here; in the data, active = GI50 up to about 1.1 µM and inactive = higher.

Use these answered entries as a reference point.
>>> recorded_measurement("Cc1cc2occ(C)c(=O)c2c2c1OC(C)(C)S2")
"51.1 µM (inactive)"
>>> recorded_measurement("CC(=O)O[C@H]1CC[C@@]2(C)C(=CC[C@@H]3[C@@H]2CC[C@]2(C)NC(=O)/C(=C\\c4ccccc4)C[C@@H]32)C1")
"16.5 µM (inactive)"

Consider the additional molecule presented here.
I'd like to know its GI50. The molecule in question is O=C(CO)CC(=O)C(=O)Nc1ccccc1
> 100 µM (inactive)

###

Reported GI50 values for the following molecules.
Tested on: NCI-H460
Assay: NCI tumour cell line growth inhibition, 48 h
Active and inactive are the calls of the source. No stated cut-off is given here; in the data, active = GI50 up to about 1.1 µM and inactive = higher.

Use these answered entries as a reference point.
>>> recorded_measurement("Cc1n[nH]c(=O)n1/N=C/c1ccc(Cl)cc1")
"59.7 µM (inactive)"
>>> recorded_measurement("C=C[C@@]1(C)CC(=O)[C@]2(O)[C@@]3(C)[C@@H](O)CCC(C)(C)[C@@H]3[C@H](O)[C@@H](OC(C)=O)[C@@]2(C)O1")
"> 100 µM (inactive)"
>>> recorded_measurement("COc1ccc(CNc2cc(OC)c(OC)c(OC)c2)cc1")
"3.47 µM (inactive)"
>>> recorded_measurement("O=C(c1cc(Cl)cc(Cl)c1)N(C(=S)OC12CC3CC(CC(C3)C1)C2)c1ccccc1")
"35.3 µM (inactive)"
>>> recorded_measurement("COc1cc2c3c(c1OC)-c1ccccc1C(C(OC(C)=O)c1ccccc1)C3N(C)CC2 (centres undefined)")
"30.5 µM (inactive)"

I'd like to know its GI50. The molecule in question is O=C(CO)CC(=O)C(=O)Nc1ccccc1
> 100 µM (inactive)

I'd like to know its GI50. The molecule in question is O=C(/C=N/O)Nc1cc(Cl)c(Cl)cc1Cl
28.4 µM (inactive)

I'd like to know its GI50. The molecule in question is CC12Oc3ccc4ccccc4c3CC1Cc1c(ccc3ccccc13)O2 (centres undefined)
82.4 µM (inactive)

I'd like to know its GI50. The molecule in question is O=C(N/N=C(COc1ccccc1)\N=C\c1ccncc1)c1ccncc1
> 100 µM (inactive)

Origin of values: ChEMBL document CHEMBL1201862
